Target: PPARγ-RXRα heterodimer (Homo sapiens)
Sequence (P37231 29-505): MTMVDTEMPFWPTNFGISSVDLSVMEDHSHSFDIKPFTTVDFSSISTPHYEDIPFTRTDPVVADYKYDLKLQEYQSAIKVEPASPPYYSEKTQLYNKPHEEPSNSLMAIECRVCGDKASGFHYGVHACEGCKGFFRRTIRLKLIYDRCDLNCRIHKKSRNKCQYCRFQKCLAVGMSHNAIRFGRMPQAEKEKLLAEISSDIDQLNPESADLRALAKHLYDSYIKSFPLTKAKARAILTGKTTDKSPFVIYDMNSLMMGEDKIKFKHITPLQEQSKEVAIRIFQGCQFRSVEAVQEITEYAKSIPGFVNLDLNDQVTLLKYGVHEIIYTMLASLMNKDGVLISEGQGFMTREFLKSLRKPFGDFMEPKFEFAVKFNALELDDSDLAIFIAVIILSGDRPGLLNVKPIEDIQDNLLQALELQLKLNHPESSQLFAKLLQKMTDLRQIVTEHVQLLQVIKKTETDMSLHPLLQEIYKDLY
Sequence (P19793 whole entry partner): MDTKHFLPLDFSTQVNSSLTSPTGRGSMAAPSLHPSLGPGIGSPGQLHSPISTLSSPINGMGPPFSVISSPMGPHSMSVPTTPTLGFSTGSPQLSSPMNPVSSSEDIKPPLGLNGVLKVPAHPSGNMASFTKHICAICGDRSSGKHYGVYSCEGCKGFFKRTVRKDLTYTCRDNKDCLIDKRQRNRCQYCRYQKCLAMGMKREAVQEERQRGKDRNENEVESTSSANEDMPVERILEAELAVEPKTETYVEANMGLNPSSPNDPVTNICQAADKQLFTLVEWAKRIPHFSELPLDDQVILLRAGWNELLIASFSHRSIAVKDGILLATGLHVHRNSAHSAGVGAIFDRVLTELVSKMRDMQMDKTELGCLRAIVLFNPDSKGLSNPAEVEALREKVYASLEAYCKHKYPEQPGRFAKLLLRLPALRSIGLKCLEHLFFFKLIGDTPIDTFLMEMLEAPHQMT
Assay: PPARγ-RXRα heterodimer ligand activity, luciferase reporter in PPARγ:RXRα:4ERPP/CHO-K1 cells (Test Example 3)
Conditions: concentration for 50% of the maximum fold induction of luciferase activity; 48 hours, CHO-K1 cells
pEC50: −log10 of the molar value.
VALUE_TYPE: pEC50

The cases that follow already have their pEC50 on record.
INSERT INTO measurements (molecule, observed_measurement) VALUES
  ('CCOc1ccc(OCc2ccc(OCc3nc(-c4ccccc4)oc3C)cc2)c(CCC(=O)O)c1 [Example 29]', 7.60),
  ('Cc1sc(-c2ccccc2)nc1COc1ccc(COc2ccccc2CC(=O)O)cc1 [Example 52]', 6.64);

P: Cc1oc(-c2ccccc2)nc1CN(C(=O)OC(C)(C)C)c1ccc(COc2ccccc2CC(=O)O)cc1 [Example 60]
Q: Cc1oc(-c2ccc3ccccc3c2)nc1COc1ccc(COc2ncccc2CC(=O)O)cc1 [Example 130]
[ask] # min-compare on pEC50 between P and Q # respond with the chosen item's label
[reply] Q

a: CCOc1ccc(OCc2ccc(OCc3nc(-c4ccccc4)oc3C)cc2)cc1CCC(=O)O [Example 7]
b: Cc1oc(-c2ccccc2)nc1COc1ccc(COc2ccc(Cl)cc2CC(=O)O)cc1 [Example 18]
[ask] # min-compare on pEC50 between a and b # respond with the chosen item's label
[reply] b

A: Cc1oc(-c2ccccc2)nc1CCc1nc(COc2cccc(CC(=O)O)c2)co1 [Example 101]
B: Cc1oc(-c2ccco2)nc1COc1ccc(COc2ncccc2CC(=O)O)cc1 [Example 92]
C: Cc1oc(-c2ccccc2)nc1CCc1noc(COc2ccccc2CC(=O)O)n1 [Example 107]
[ask] Sort (3 molecules) by pEC50: min first. Present the labels in the sequence the task asks for.
[reply] B, C, A
(B: 6.43, C: 7.06, A: 7.37)

a: Cc1oc(-c2ccccc2)nc1CCOc1ccc(COc2ccccc2CC(=O)O)cc1 [Example 58]
b: Cc1oc(-c2ccccc2)nc1COc1ccc(COc2ccccc2CC(=O)O)cn1 [Example 41]
[ask] # min-compare on pEC50 between a and b # respond with the chosen item's label
[reply] a
(a: 6.92, b: 7.82)

Reference source: patent US7238716B2
